The reported numbers originate from paper PMC4019466.

- target.or.test.system: MBP-yRps14 (Saccharomyces cerevisiae, UniProt P06367 1-137)
- assay.explanation: filter binding; 300 mM KCl, 5 mM Mg2+, HEPES pH 8.0; Filter binding: 30 mM Tris-HCl pH 8.0, 150 mM KCl, 6 mM MgCl2, 60 ug/ml E. coli tRNA, 20 C, 15 min, 10 fmol RNA (Fig S4D: 20 mM HEPES pH 8.0, 300 mM KCl, 5 mM MgCl2, 20 C); pull-down: IP buffer (300 mM KCl, 50 mM Hepes pH 7.5, 0.5 mM EDTA, 1 mM DTT, 10% glycerol as given for bead preparation), 5 mM MgCl2 where stated
- reported.conditions: protein: recombinant; tags: MBP (pETM41; His-tag purification); (radioactively labeled); hairpin
property.label: Kd (µM)

binder	measured.value
GGGAGUAUUCAAUUGUCAGAGGUGAAAUUCUUGGAUUUAUUGAAGAGU (structured_RNA) [Helix 23 of 18S rRNA (H23)]	34.9
